Molecular target: alligator estrogen receptor alpha (aERα) (Alligator mississippiensis, UniProt Q765N7)
Assay: Cell-free competitive binding assay with baculovirus-expressed recombinant aERα
Design: species or system American alligator (Alligator mississippiensis)

compound	result.units	IC50
ClC(Cl)=C(c1ccc(Cl)cc1)c1ccccc1Cl	µM	85.1
CC(C)(c1ccc(O)cc1)c1ccc(O)cc1 [Bisphenol A, reference compound]	µM	1.07
Clc1ccc(C(c2ccccc2Cl)C(Cl)(Cl)Cl)cc1 (stereo not drawn)	µM	0.977

---

Molecular target: alligator estrogen receptor alpha (aERα) (Alligator mississippiensis, UniProt Q765N7)
Test: Cell-free competitive binding assay with baculovirus-expressed recombinant aERα
Set-up: species or system American alligator (Alligator mississippiensis)
Details: read-out: IC50 for aERα
metric.name: IC50 (µM)

compound	reported
OC(c1ccc(Cl)cc1)(c1ccc(Cl)cc1)C(Cl)(Cl)Cl [p,p′-Dicofol, p,p′-dicofol]	4

---

Target: UniProt P03372
Sequence (P03372 1-595): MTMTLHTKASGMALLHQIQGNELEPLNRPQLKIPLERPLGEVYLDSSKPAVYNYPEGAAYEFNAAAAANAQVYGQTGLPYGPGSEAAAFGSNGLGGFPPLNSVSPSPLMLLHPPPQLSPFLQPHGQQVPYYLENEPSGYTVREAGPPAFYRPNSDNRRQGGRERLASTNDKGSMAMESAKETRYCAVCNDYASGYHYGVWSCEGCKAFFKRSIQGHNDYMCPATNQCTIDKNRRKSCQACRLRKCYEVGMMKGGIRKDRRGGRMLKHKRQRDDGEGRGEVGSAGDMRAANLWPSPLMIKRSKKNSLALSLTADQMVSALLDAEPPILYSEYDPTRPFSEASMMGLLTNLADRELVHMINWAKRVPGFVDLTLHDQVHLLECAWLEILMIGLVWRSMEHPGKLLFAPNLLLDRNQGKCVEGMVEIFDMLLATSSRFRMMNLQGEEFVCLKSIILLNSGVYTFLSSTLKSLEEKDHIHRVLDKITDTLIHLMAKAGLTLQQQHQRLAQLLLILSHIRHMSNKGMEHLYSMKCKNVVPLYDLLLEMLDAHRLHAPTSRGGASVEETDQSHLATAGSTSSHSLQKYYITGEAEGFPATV
Assay: Cell-free competitive binding assay with baculovirus-expressed recombinant hERα
pIC50: −log10 of the molar value.

chemical.structure	pIC50
ClC(Cl)=C(c1ccc(Cl)cc1)c1ccccc1Cl	3.66

---

Molecular target: UniProtKB P03372
Assay: Cell-free competitive binding assay with baculovirus-expressed recombinant hERα
Details: non-binder <50% E2 displaced; equivocal binder 50% or greater but <80%

molecule	Binding classification for hERα
ClC(Cl)=C(c1ccc(Cl)cc1)c1ccc(Cl)cc1 [p,p′-DDE]	non-binders
Clc1ccc(C(c2ccc(Cl)cc2)C(Cl)Cl)cc1 [p,p′-DDD]	non-binders

---

# RBA, Human annotations
Molecular target: human estrogen receptor alpha (hERα) (Homo sapiens)
Assay: Cell-free competitive binding assay with baculovirus-expressed recombinant hERα
Conditions: IC50 of 17β-estradiol / IC50 of compound × 100

compound	RBA, Human
CC(C)(c1ccc(O)cc1)c1ccc(O)cc1 [Bisphenol A, reference compound]	0.05
OC(c1ccc(Cl)cc1)(c1ccc(Cl)cc1)C(Cl)(Cl)Cl	0.001
ClC1=C(Cl)[C@]2(Cl)[C@H]3[C@H]([C@H](Cl)C(Cl)[C@@H]3Cl)[C@@]1(Cl)C2(Cl)Cl (stereo partly drawn) [cis-Nonachlor]	0.003
ClC(Cl)=C(c1ccc(Cl)cc1)c1ccccc1Cl	0.003
